Please respond with reported self-splicing fitness (ln) for every item in the list.
test: self-splicing fitness, log relative to wild type (ln ratio); higher = more splicing; Tetrahymena group I intron in knt gene, E. coli kanamycin selection, DiMSum; sequences stand for … in CUCUCU…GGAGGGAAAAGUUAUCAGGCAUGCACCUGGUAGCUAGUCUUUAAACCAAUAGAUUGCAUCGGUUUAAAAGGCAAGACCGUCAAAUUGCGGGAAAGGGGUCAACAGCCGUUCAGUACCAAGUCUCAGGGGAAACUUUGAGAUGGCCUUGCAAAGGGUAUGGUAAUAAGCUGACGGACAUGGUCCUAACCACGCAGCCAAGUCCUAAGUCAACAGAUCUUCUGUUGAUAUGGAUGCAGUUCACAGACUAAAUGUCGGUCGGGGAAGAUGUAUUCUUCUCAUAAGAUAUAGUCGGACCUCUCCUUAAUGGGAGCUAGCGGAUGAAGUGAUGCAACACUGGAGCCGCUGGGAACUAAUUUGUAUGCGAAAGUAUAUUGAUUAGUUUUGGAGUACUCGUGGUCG; details: 37 °C;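 note: selection with 25 µg/mL kanamycin versus none on LB agar overnight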

Consider the reported self-splicing fitness (ln) for these sequences:
CGAUAGCAAUAUUACGACCG = 0.156
AAAAAGCAAUAUUACGAAAC = -2.36
UAACAGCAAUAUUACGGAUU = -0.666
GCACAGCAAUAUUACGCGAA = 0.308
AAUCAGCAAUAUUACGCGAU = -2.07

Please supply self-splicing fitness (ln) for each of the following items, keeping them in order.
1. ACCGAGCAAUAUUACGUCCG
2. UACAAGCAAUAUUACGUCAU

Response given:
[-1.5, -1.05]

Count: 3. Required value per item: self-splicing fitness (ln).
1. UUAAAGCAAUAUUACGGAGU
2. AAAUAGCAAUAUUACGAGUA
3. CUGGAGCAAUAUUACGUCGU

Response given:
1. -1.68
2. -1.09
3. -2.39

Would you be so kind as to report self-splicing fitness (ln) for each listed record?
1. UUGAAGCAAUAUUACGGGCA
2. UGGUAGCAAUAUUACGCGUA
3. AGUUAGCAAUAUUACGCAGC
4. UAGCAGCAAUAUUACGCCCC
5. ACCGAGCAAUAUUACGCUCC
6. AGUUAGCAAUAUUACGAUAU

Response given:
1: 0.502; 2: -1.56; 3: -1.18; 4: -1.56; 5: -1.79; 6: -0.311

Respectfully, I request self-splicing fitness (ln) for each entry included below.
1. UAAAAGCAAUAUUACGCGCA
2. GAAGAGCAAUAUUACGUUCA

Response given:
1: 0.752; 2: -0.0689

---

experiment: self-splicing fitness, log relative to wild type (ln ratio); higher = more splicing; Tetrahymena group I intron in knt gene, E. coli kanamycin selection, DiMSum; sequences stand for … in CUCUCU…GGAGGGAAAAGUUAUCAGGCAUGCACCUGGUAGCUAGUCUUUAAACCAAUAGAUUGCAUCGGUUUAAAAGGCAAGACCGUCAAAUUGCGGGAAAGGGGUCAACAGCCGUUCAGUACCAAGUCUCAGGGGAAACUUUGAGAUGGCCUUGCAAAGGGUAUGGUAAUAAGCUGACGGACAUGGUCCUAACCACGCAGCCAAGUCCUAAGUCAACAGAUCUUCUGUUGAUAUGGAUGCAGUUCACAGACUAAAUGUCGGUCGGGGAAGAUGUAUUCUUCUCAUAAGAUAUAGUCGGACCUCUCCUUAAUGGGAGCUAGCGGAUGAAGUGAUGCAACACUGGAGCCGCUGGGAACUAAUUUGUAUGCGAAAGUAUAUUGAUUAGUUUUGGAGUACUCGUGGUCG; conditions: 30 °C
I'd appreciate it if you could supply self-splicing fitness (ln) values for the items below.
One number for each entry.

UUCCAGCAAUAUUACGGGAA = -2.87
CAAAAGCAAUAUUACGGUCA = -1.83
AGCUAGCAAUAUUACGUUGU = -2.56

Below are some sequences; for each one, tell me its self-splicing fitness (ln).
1. CAGAAGCAAUAUUACGGGAU
2. UCUUAGCAAUAUUACGUCGG
3. UGCAAGCAAUAUUACGGUUU
4. AGAUAGCAAUAUUACGAUCU

Response given:
[-3.18, -0.815, -2.53, -1.53]

Challenge: # input sequence: AACCAGCAAUAUUACGAGGA ; wanted: its self-splicing fitness (ln)
Response given: -2.25

FYI, the data here is from the supplement of paper PMC7877785.
